Reported concentration at 30 min is given for each of the following molecules.
measurement_protocol: Mouse brain concentrations
Format: in vivo
measurement_context: female, NMRI, mouse, brain, oral, 25 mg/kg, fexinidazole 25 mg/kg po, 30 min; read-out: Brain concentration
Method: Following sacrifice, the cranium of mice was opened and the brain removed. Excess blood was washed from the brain with distilled water and any excess fluid blotted on absorbent paper. […] All doses are expressed as free base […] All of the plasma samples together with the brains from the 15 minute time point were analysed for concentrations of the test material and its sulfone and sulfoxide metabolites. […]
Quick note: give the figure in ng/g, leave out the unit.

Solved entries:
CSc1ccc(OCc2ncc([N+](=O)[O-])n2C)cc1: 800
Cn1c([N+](=O)[O-])cnc1COc1ccc(S(C)(=O)=O)cc1: 468

Pending molecule:
**Q:** So what's the measured concentration at 30 min for this one? Cn1c([N+](=O)[O-])cnc1COc1ccc([S+](C)[O-])cc1 (stereo not drawn) [Fexinidazole sulfoxide]
**A:** 3310
